Target: hPARG4 (hPARG(448–976)) (Homo sapiens)
measured.metric: pIC50
Numbers only, as −log10 of the molar value.

Task: Short answer please: pIC50, hPARG4 (hPARG(448–976)) (Homo sapiens), entry Nc1ncnc2c1ncn2C1OC(COP(=O)(O)OP(=O)(O)OCC2NCC(O)C2O)C(O)C1O (stereo not shown) [ADP-HPD]
Result: 6.01

====

Biological target: hPARG (full-length) (Homo sapiens, UniProt Q86W56)
Construct: direct expression of hPARG(1–976) with a C-terminal hexahistidine tag; made in house; host or cells: E. coli BL21 (DE3) GOLD
Sequence (Q86W56 whole entry): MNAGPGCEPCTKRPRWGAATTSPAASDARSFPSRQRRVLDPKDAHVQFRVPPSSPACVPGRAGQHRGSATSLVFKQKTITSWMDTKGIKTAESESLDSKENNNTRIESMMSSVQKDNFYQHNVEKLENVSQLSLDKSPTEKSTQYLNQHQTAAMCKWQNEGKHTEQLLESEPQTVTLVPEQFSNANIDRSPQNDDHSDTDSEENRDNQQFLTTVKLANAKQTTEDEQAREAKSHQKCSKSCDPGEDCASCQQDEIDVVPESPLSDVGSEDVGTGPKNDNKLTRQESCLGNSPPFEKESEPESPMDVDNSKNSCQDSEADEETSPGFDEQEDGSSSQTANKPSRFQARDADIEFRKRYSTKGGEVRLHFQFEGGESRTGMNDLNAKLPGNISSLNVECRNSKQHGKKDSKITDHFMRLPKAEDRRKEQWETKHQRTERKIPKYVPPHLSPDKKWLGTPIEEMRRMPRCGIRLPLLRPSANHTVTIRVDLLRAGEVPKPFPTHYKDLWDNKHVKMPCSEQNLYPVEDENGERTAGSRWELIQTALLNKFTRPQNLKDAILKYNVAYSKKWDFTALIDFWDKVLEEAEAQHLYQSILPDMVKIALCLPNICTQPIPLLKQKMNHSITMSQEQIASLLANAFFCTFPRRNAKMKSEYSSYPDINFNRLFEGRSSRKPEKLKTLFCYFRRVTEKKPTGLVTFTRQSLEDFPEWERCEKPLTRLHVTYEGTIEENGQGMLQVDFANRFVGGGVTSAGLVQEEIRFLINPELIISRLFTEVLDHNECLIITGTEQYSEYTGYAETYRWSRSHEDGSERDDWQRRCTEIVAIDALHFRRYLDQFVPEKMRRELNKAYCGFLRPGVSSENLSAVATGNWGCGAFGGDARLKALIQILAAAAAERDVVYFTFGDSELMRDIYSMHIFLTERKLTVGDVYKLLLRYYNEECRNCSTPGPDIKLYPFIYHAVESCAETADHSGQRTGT
Test: Isothermal titration calorimetry
Assay type: binding
Details: 25°C, values heavily influenced by base-line noise (Figure S2), read-out: KD (ITC)
measured.metric: Kd (nM)
Answers are plain numbers, in nM.

Task: Short answer please: Kd, hPARG (full-length) (Homo sapiens, UniProt Q86W56), entry Nc1ncnc2c1ncn2C1OC(COP(=O)(O)OP(=O)(O)OCC2NCC(O)C2O)C(O)C1O (stereo not shown)
Result: 416
